Consider the following binders and their measured OD value readings.
- study-target: T1, human Nectin-4 extracellular antigen hNectin-4-His (human, UniProt Q96NY8 32-349)
- T1 construct: C-terminal 8xHis tag included
- T1 sequence: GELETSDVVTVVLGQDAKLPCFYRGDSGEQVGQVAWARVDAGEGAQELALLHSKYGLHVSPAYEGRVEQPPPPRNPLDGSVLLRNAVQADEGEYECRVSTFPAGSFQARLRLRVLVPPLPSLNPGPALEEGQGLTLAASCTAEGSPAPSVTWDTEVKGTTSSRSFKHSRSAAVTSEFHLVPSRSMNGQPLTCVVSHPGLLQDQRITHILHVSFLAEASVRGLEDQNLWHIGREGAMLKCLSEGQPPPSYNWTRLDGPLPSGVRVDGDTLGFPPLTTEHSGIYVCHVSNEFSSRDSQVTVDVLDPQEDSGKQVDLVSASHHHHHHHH
- protocol-description: ELISA, phage scFv supernatant 1:50
Quick reminder: number only, in OD, skip the unit.

Observe how each entry below is paired with its result.
[
  {
    "binder": "1G8-1E10 scFv (scFv, V domains shown, phage clone supernatant) VH: EVQLVESGGGLVQPGGSLRLSCAASGDSFSTYAMSWVRQAPGKGLEWVSRISGSGDGKDYADSVKGRFTISRDNSKNTLYLQMNSLRAEDTAVYYCARQTEDRSYGYDLDYWGQGTLVTVSS VL: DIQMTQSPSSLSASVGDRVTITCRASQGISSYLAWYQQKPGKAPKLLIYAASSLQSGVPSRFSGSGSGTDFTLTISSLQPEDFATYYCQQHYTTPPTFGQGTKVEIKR",
    "unit-text": "OD",
    "OD value": 1.6
  },
  {
    "binder": "1G8-2C6 scFv (scFv, V domains shown, phage clone supernatant) VH: EVQLVESGGGLVQPGGSLRLSCAASGDNFSSYAMSWVRQAPGKGLEWVSRIYGSDSTPDYADSVKGRFTISRDNSKNTLYLQMNSLRAEDTAVYYCARQTEDRSYGYDLDYWGQGTLVTVSS VL: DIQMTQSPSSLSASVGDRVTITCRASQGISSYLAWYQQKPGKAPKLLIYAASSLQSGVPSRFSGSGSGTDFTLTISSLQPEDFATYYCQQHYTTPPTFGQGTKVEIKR",
    "unit-text": "OD",
    "OD value": 1.58
  },
  {
    "binder": "1G8-2H3 scFv (scFv, V domains shown, phage clone supernatant) VH: EVQLVESGGGLVQPGGSLRLSCAASGYSFGGYAMSWVRQAPGKGLEWVSRISGIKAYNDYADSVKGRFTISRDNSKNTLYLQMNSLRAEDTAVYYCARQTEDRSYGYDLDYWGQGTLVTVSS VL: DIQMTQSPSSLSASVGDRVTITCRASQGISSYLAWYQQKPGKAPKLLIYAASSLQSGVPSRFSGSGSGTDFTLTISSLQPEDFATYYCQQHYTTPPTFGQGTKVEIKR",
    "unit-text": "OD",
    "OD value": 1.53
  }
]

Which OD value reading was recorded for the binder 1F3-2C9 scFv (scFv, V domains shown, phage clone supernatant) VH: EVQLVESGGGLVQPGGSLRLSCAASGFNFGGYGMSWVRQAPGKGLEWVSRISPGDSTPRYADSVKGRFTISRDNSKNTLYLQMNSLRAEDTAVYYCARAELLAFDVYTASDYWGQGTLVTVSS VL: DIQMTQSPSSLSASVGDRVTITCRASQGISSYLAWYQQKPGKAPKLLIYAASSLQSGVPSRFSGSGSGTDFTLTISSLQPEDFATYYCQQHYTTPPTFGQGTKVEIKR ?
1.59

# get_value(readout='OD value', item= 10F4-1E12 scFv (scFv, V domains shown, phage clone supernatant) VH: EVQLVESGGGLVQPGGSLRLSCAASGYNFSSYDMSWVRQAPGKGLEWVSGISDTGDYANYADSVKGRFTISRDNSKNTLYLQMNSLRAEDTAVYYCAREYSDVVDYVSVRTPLDYWGQGTLVTVSS VL: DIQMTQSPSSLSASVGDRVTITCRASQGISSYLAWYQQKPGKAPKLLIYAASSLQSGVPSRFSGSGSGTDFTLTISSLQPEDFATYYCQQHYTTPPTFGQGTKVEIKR )
1.52
